- procedure.text: Acute toxicity in mice (LD50, Litchfield-Wilcoxon method)
- conditions: mouse, in vivo; oral, Jcl:ICR female mice, dispersed in 0.3% CMC aqueous solution, observed for 7 days; read-out: LD50, Oral Administration
Entries and their LD50 at 168 h
metric.name: LD50 at 168 h

INSERT INTO results (compound, metric_name, data_value) VALUES
  ('CO[C@H]1O[C@@H]2COC(c3ccc(O)c(O)c3)O[C@H]2[C@H](O)[C@H]1O (some centres unmarked) [Ib1]', 'LD50 at 168 h', '> 4000 mg/kg'),
  ('CO[C@H]1O[C@@H]2COC(c3ccc(OC(=O)c4ccccc4)c(OC(=O)c4ccccc4)c3)O[C@H]2[C@H](O)[C@H]1O (some centres unmarked) [Ia1]', 'LD50 at 168 h', '> 4000 mg/kg');
